Just for reference, FireProtDB is where these values come from.

Listed here: items and their measured change of melting temperature, mutant - wild type (higher = more stable).
B1: Ribonuclease HI, P0A7Y4 (parent)
chain: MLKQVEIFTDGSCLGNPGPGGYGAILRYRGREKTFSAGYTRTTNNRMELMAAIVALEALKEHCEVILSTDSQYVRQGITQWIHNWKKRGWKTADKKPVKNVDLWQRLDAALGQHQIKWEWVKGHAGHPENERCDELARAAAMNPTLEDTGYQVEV

Variants of: B1
Details: Escherichia coli (strain K12); pH 3; Thermal; CD; glycine-HCl 10 mM; reversible: yes; structure 2RN2; whole UniProt chain shown
Report as a plain number; the unit °C is understood.

{"columns": ["Alteration", "Test Value"],
 "data": [
  ["Q113P", -0.6],
  ["A125T", 0.4],
  ["K91R D94E K95G", 4],
  ["K91R K95G", 5.2],
  ["H62P", 3.4]
]}

Would you kindly look at the next entry?
Prompt: Param item = Y28F R29H G30A R31H ; retrieve measured change of melting temperature, mutant - wild type (higher = more stable).
Completion: -2.3
